- Tested Target: mouse FP receptor (Mus musculus, UniProt P43117)
- Sequence (P43117 whole entry): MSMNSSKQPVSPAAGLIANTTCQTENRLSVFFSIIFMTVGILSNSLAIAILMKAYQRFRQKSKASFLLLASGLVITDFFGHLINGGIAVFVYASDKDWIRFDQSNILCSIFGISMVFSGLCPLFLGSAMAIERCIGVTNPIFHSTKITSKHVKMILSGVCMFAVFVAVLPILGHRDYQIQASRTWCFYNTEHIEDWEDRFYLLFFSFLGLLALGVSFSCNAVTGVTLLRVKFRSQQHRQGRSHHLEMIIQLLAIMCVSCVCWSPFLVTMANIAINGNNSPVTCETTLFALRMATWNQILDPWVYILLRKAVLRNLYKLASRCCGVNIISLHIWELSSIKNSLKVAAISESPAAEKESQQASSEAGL
- Experimental Protocol: Measurement of FP agonist activity (intracellular calcium concentration) in FP-CHO cells
- Condition Parameters: FP-CHO cells, intracellular calcium concentration; read-out: Agonist activity on various prostanoid receptors: EC50 value (nmol/L) FP
pEC50: −log10 of the molar value.
Endpoint: pEC50

The examples below pair each entry with its known result.
| Molecule | pEC50 |
| --- | --- |
| O=C(O)CCC[C@H]1CC[C@@H]2[C@@H](/C=C/C(O)CCC3CCCC3)[C@H](O)C[C@@H]2OC1 (stereo partly drawn) [Example 132 (7)] | 7.68 |
| O=C(O)CCC[C@H]1CC[C@@H]2[C@@H](/C=C/[C@@H](O)COc3ccccc3)[C@H](O)C[C@@H]2O1 [Comparative Compound A, reference compound] | 8.96 |
| O=C(O)CCC[C@H]1CC[C@@H]2[C@@H](COC/C=C/c3ccccc3)[C@H](O)C[C@@H]2OC1 [Example 110] | 6.15 |
| O=C(O)CCC[C@H]1CC[C@@H]2[C@@H](CC[C@@H](O)COc3cccc(C(F)(F)F)c3)[C@H](O)C[C@@H]2OC1 [Example 108 (13)] | 8.01 |
| O=C(O)CCC[C@H]1CC[C@@H]2[C@@H](/C=C/C(O)COCc3ccccc3)[C@H](O)C[C@@H]2OC1 (stereo partly drawn) [Example 132 (3)] | 6.94 |

P: O=C(O)CCC[C@H]1CC[C@@H]2[C@@H](C#CC(O)CCc3ccccc3)[C@H](O)C[C@@H]2OC1 (stereo partly drawn) [Example 119]
Q: O=C(O)CCC[C@H]1CC[C@@H]2[C@@H](C(F)/C=C/COc3ccccc3)[C@H](O)C[C@@H]2OC1 (stereo partly drawn) [Example 123]
Inquiry: Between P and Q , whose measured pEC50 reads higher? Pick one; state its label.
Reply text: P

---

- Tested Target: mouse EP1 receptor (Mus musculus)
- Sequence (P35375 whole entry): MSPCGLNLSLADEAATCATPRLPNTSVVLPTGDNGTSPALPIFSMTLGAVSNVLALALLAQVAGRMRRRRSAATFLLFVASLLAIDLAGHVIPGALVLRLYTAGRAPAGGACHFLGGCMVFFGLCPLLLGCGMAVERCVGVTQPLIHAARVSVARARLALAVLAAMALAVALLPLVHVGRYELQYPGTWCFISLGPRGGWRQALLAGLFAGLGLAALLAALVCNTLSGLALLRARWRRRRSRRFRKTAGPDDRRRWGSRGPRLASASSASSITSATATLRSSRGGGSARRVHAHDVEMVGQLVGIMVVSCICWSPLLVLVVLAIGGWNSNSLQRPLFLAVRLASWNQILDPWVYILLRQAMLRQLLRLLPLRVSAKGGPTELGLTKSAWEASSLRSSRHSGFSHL
- Experimental Protocol: Measurement of EP1 agonist activity (intracellular calcium concentration) in EP1-CHO cells
- Condition Parameters: EP1-CHO cells, intracellular calcium concentration; read-out: Agonist activity on various prostanoid receptors: EC50 value (nmol/L) EP1
pEC50: −log10 of the molar value.
Entries and their pEC50 values follow.

The examples below pair each entry with its known result.
| Compound | Tested Target | Measured Result |
| --- | --- | --- |
| O=C(O)CCC[C@H]1CC[C@@H]2[C@@H](/C=C/C(F)(F)CCc3ccccc3)[C@H](O)C[C@@H]2OC1 | mouse EP1 receptor (Mus musculus) | < 5.00 |
| O=C(O)CCC[C@H]1CC[C@H]2[C@H](CC(F)(F)[C@@H]2/C=C/C(O)CCc2ccccc2)OC1 (stereo partly shown) | mouse EP1 receptor (Mus musculus) | < 5.00 |
| O=C(O)CCC[C@H]1CC[C@@H]2[C@@H](/C=C/C(O)COCc3ccccc3)[C@H](O)C[C@@H]2OC1 (stereo partly shown) | mouse EP1 receptor (Mus musculus) | < 5.00 |

// next item, pEC50 requested
Form: item O=C(O)CCC[C@H]1CC[C@@H]2[C@@H](/C=C/C(F)COc3ccccc3)[C@H](O)C[C@@H]2OC1 (stereo partly shown) ; test system mouse EP1 receptor (Mus musculus); pEC50: 5.03

---

- Tested Target: mouse FP receptor (Mus musculus, UniProt P43117)
- Construct: expressed in transfected cells; host or cells: CHO cells (FP-CHO)
- Experimental Protocol: Measurement of FP agonist activity (intracellular calcium concentration) in FP-CHO cells
- Format: cell-based
- Condition Parameters: FP-CHO cells, intracellular calcium concentration; read-out: Agonist activity on various prostanoid receptors: EC50 value (nmol/L) FP
Endpoint: EC50 (nmol/L)

The examples below pair each entry with its known result.
| Molecule | EC50 (nmol/L) |
| --- | --- |
| O=C(O)CCC[C@H]1CC[C@@H]2[C@@H](/C=C/C(F)COc3ccccc3)[C@H](O)C[C@@H]2OC1 (some centres unmarked) [Example 122] | 9.8 |
| CC(C)=CCCCC(F)(F)/C=C/[C@@H]1[C@H]2CC[C@H](CCCC(=O)O)CO[C@H]2C[C@H]1O [Example 141 (5)] | 39.1 |

a: O=C(O)CCC[C@H]1CC[C@H]2[C@H](CC(F)(F)[C@@H]2/C=C/C(O)CCc2ccccc2)OC1 (some centres unmarked) [Example 139 (2)]
b: O=C(O)CCC[C@H]1CC[C@@H]2[C@@H](/C=C/C(F)(F)CCc3ccccc3)[C@H](O)C[C@@H]2OC1 [Example 141 (1)]
c: O=C(O)CCC[C@H]1CC[C@@H]2[C@@H](CCOCCc3ccccc3)[C@H](O)C[C@@H]2OC1 [Example 115]
Inquiry: // smallest EC50 at index 0, largest at the end Answer by writing out the labels in the requested order.
Reply text: b, a, c
(b: 4.6 nmol/L, a: 39 nmol/L, c: 509 nmol/L)
